test.target: T1, human TNFR1 on cells (HT1080, HeLa, Kym-1) (human, UniProt P19438 30-455)
T1 sequence (looked up): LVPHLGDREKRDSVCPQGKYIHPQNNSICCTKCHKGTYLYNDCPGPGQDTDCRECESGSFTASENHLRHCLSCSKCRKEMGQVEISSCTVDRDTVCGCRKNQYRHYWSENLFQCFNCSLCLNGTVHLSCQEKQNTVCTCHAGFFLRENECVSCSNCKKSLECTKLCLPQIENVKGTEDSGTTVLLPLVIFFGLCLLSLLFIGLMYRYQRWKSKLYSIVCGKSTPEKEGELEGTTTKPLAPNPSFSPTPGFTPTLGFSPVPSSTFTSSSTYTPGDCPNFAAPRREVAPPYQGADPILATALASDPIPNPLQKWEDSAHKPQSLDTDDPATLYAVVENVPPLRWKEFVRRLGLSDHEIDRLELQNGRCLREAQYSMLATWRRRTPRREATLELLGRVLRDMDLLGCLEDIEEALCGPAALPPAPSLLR
protocol: cell-based or functional assay
Please go through the items and note down their IC50 (nM), inhibition of TNF-induced IL-8 release from HT1080 cells.
Give the number; nM is assumed, so skip it.

Quick note, IC50 (nM), inhibition of TNF-induced IL-8 release from HT1080 cells for scFvFRK13.7 (scFv, V domains shown) VH: HVQLVQSGAEVKKPGSSVKVSCKASGYTFTDFYINWVRQAPGQGLEWIGEIVPSQGEAKYNDKFKARVTITADKSTSTAYMELSSLRSEDTAVYYCARWDFLDYWGQGTTVTVSS VL: DVQMTQSPSSLSASVGDRVTITCRSSQSLLHSNGNTYLHWYQQKPGKAPKLLIYTVSNRFSGVPSRFSGSGSGTDFTLTISSLQPEDFATYYCSQSTHVPYTFGGGTKVEIK landed at 284

Quick note, IC50 (nM), inhibition of TNF-induced IL-8 release from HT1080 cells for scFvIZI06.1 (scFv, V domains shown, Made in the periplasm of E. coli TG1; also called ATROSAB scFv) VH: QVQLVQSGAEVKKPGSSVKVSCKASGYTFTDFYINWVRQAPGQGLEWIGEIYPYSGHAYYNEKFKARVTITADKSTSTAYMELSSLRSEDTAVYYCARWDFLDYWGQGTTVTVSS VL: DIVMTQSPLSLPVTPGEPASISCRSSQSLLHSNGNTYLHWYLQKPGQSPQLLIYTVSNRFSGVPDRFSGSGSGTDFTLKISRVEAEDVGVYYCSQSTHVPYTFGGGTKVEIK landed at 932

Quick note, IC50 (nM), inhibition of TNF-induced IL-8 release from HT1080 cells for scFvT12B (scFv, V domains shown) VH: HVQLVQSGAEVKKPGSSVKVSCKASGYTFTDFYINWVRQAPGQGLEWIGEIVPSQGEAKYNDKFKARVTITADKSTSTAYMELSSLRSEDTAVYYCARWDFLDYWGQGTTVTVSS VL: DIVMTQSPLSLPVTPGEPASISCRSSQSLLHSNGNTYLHWYLQKPGQSPQLLIYTVSNRFSGVPDRFSGSGSGTDFTLKISRVEAEDVGVYYCSQGTHVPYTFGGGTKVEIK landed at 309
